Reported Color by item:
# Tested on: perennial ryegrass
# method: Turf tolerance field study, perennial ryegrass, Indiana 2004
# Assay type: in vivo
# settings: Liquid formulation, 21 Days After Treatment, 0 = brown to dead turf, 10 = lush green, g ai/Ha: penoxsulam 35, imazaquin 104, bispyribac-sodium 75, trifloxysulfuron-sodium 9.2, metsulfuron-methyl 10.4

Take a look at these entries with their results.
COc1cc(OC)nc(NC(=O)[N-]S(=O)(=O)c2ncccc2OCC(F)(F)F)n1.[Na+] [Trifloxysulfuron-sodium, trifloxysulfuron-sodium]    4.0 0-10 Scale
CC(C)C1(C)N=C(c2nc3ccccc3cc2C(=O)O)NC1=O (centres unmarked)    8.3 0-10 Scale
COc1cc(OC)nc(Oc2cccc(Oc3nc(OC)cc(OC)n3)c2C(=O)O)n1 [Bispyribac-sodium, bispyribac-sodium]    6.5 0-10 Scale
COC(=O)c1ccccc1S(=O)(=O)NC(=O)Nc1nc(C)nc(OC)n1    6.0 0-10 Scale

Turning now to a further compound:
I looked up COc1cnc(OC)n2nc(NS(=O)(=O)c3c(OCC(F)F)cccc3C(F)(F)F)nc12 and its Color for perennial ryegrass was 6.5 0-10 Scale

Origin of the recorded values: patent US7799343B2
